System: A549-GM130-SQSTM1
assay-notes: phenotypically active (imaging signature differs from DMSO and reproducible) at any of 0.3-9 uM (binary (1 = active, 0 = inactive)); higher = active
run-conditions: treatment time: 24 h
Structures can show the parent of a compound that is named as a salt.
quantity-kind: phenotypically active
Note: the reply should be a number with no unit written.

molecule: COc1cc2c(cc1OC)-c1c/c(=N/c3c(C)cc(C)cc3C)n(C)c(=O)n1CC2 [Trequinsin hydrochloride]
test-system: A549-GM130-SQSTM1
phenotypically active: 1

Query: Form field - read-out: phenotypically active; system: A549-GM130-SQSTM1; submitted item: "COc1ccc(CNC(=O)Nc2ncc([N+](=O)[O-])s2)cc1"
Reply: 1

Query: Moving on to the next molecule: O=P(O)(O)C(O)(Cn1ccnc1)P(=O)(O)O [zoledronic-acid]
Reply: 0

* * *

Tested on: A549-GM130-SQSTM1
assay-notes: phenotypically active (imaging signature differs from DMSO and reproducible) at any of 0.3-9 uM (binary (1 = active, 0 = inactive)); higher = active
run-conditions: treatment time: 24 h
Structures can show the parent of a compound that is named as a salt.
In this exercise, the only acceptable responses are active, inactive

Worked examples follow.
compound: COc1cc2c(cc1-c1c(C)noc1C)ncc1[nH]c(=O)n([C@H](C)c3ccccn3)c12 [I-BET 151 dihydrochloride]
assigned-class: active
--
compound: NS(=O)(=O)c1cc2c(cc1Cl)NC(C(Cl)Cl)NS2(=O)=O (stereo not drawn) [trichlormethiazide]
assigned-class: inactive

Query: Assay result, entry Cc1c(OCC(F)(F)F)ccnc1CS(=O)c1nc2ccccc2[nH]1 (stereo not drawn) — outcome?
Reply: inactive

Query: Moving on to the next compound: "CC(C)(C)NC[C@H](O)COc1cccc2c1CCCC2=O"
Reply: inactive

Query: Moving on to the next compound: "O=c1[nH]cnc2ccccc12"
Reply: inactive

Query: Moving on to the next compound: "CCSc1ccc2c(c1)N(CCCN1CCN(C)CC1)c1ccccc1S2"
Reply: active

Query: Moving on to the next compound: CC(=O)NCCCS(=O)(=O)O [acamprosate]
Reply: inactive

Query: Moving on to the next compound: CCOc1cc(CC(=O)N[C@@H](CC(C)C)c2ccccc2N2CCCCC2)ccc1C(=O)O [repaglinide]
Reply: inactive

Query: Moving on to the next compound: OCc1cc(C(O)CNCCCCCCOCCCCc2ccccc2)ccc1O (stereo not drawn)
Reply: active

Query: Moving on to the next compound: "COc1cc(NC(=O)c2cccc(-n3cc(NC(=O)Nc4cccc(C)c4)cn3)c2)cc(OC)c1OC"
Reply: active

Query: Moving on to the next compound: "CC(C)N(CCC(=O)c1ccc2ccccc2c1)Cc1ccccc1"
Reply: inactive

Query: Moving on to the next compound: "COc1ncc2cc(C(=O)Nc3cc(C(=O)NCc4cccc(Cl)c4)ccc3Cl)c(=O)[nH]c2n1"
Reply: inactive

Query: Moving on to the next compound: "COc1cc(Br)c(Nc2nc(-c3c(C)nc4ncccn34)cs2)c(Br)c1"
Reply: active

Query: Moving on to the next compound: "O=C(Nc1ccccc1)c1cc([N+](=O)[O-])ccc1Cl"
Reply: active

* * *

Tested on: A549-TUBA1B-RELA
assay-notes: phenotypically active (imaging signature differs from DMSO and reproducible) at any of 0.3-9 uM (binary (1 = active, 0 = inactive)); higher = active
run-conditions: treatment time: 24 h
In this exercise, the only acceptable responses are active, inactive

Query: Assay result, entry CCC1(C)OC(=O)N(C)C1=O (stereo not drawn) — outcome?
Reply: inactive

Query: Moving on to the next compound: "CN/C(=C/[N+](=O)[O-])NCCSCc1csc(CN(C)C)n1"
Reply: inactive

Query: Moving on to the next compound: "Cc1cc(-c2ccc(/C=C3\S/C(=N\c4ccc(Cl)c(C(=O)O)c4)NC3=O)o2)c([N+](=O)[O-])cc1C"
Reply: inactive

Query: Moving on to the next compound: CC(C)NCC(O)c1ccc(NS(C)(=O)=O)cc1 (stereo not drawn)
Reply: inactive

Query: Moving on to the next compound: "CN1CCN(c2ccc(OC(F)(F)F)c(Nc3ncc4c(n3)-c3c(c(C(N)=O)nn3CCO)CC4)c2)CC1"
Reply: active

Query: Moving on to the next compound: C[C@@H]1C[C@H]2[C@@H]3C[C@H](F)C4=CC(=O)C=C[C@]4(C)[C@@]3(F)[C@@H](O)C[C@]2(C)[C@@]1(O)C(=O)COC(=O)C(C)(C)C [flumethasone pivalate]
Reply: active

Query: Moving on to the next compound: "Cc1cnc(NC(=O)Nc2cc(Br)c(C)cc2OC[C@@H]2CNCCO2)cn1"
Reply: active

Query: Moving on to the next compound: O=C1CCC[C@@H]2[C@H]3CCC[N+]4([O-])CCC[C@@H](CN12)[C@@H]34 (stereo partly drawn)
Reply: inactive

Query: Moving on to the next compound: CCC(=C(CC)c1ccc(O)cc1)c1ccc(O)cc1 (stereo in doubt)
Reply: inactive

Query: Moving on to the next compound: "O=C(Cn1ccnc1[N+](=O)[O-])NCc1ccccc1"
Reply: inactive

Query: Moving on to the next compound: "CCN(CC)CC(=O)Nc1c(C)cccc1C"
Reply: inactive
